Please provide measured z-score for the entries that follow.
# assayMethodText: E. coli acrAB mutant growth effects, primary screen, E. coli filamentation inducers, strain DRC39, OD650, 24 h (AID 1178);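 note: growth measured as culture turbidity by optical density at 650 nm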
# conditionDescription: higher = more signal, called active from +8 up or from −8 down
Numbers only.

Here is how some compounds turned out for z-score.
compound	recordedResult
O=C1O[C@H](c2ccccc2)[C@H](c2ccccc2)N2[C@H]1[C@@H](C(=O)Nc1nc3ccccc3s1)[C@]1(C(=O)Nc3ccc(C#CCCO)cc31)[C@H]2c1ccccc1OCCO	0.381
COc1ccc(/C=C/C(=O)c2cccc(OCC(=O)OC(C)(C)C)c2)cc1	0.4
CC(C)C[C@@H]1NC(=O)[C@@]23C(=O)N[C@@H](Cc4ccccc4)C2[C@H](C)[C@@]2(C)O[C@H]2C3/C=C/CC/C=C/CNC(=O)[C@@H](C)NC1=O (some centres undefined)	2.5

Now let's try a different one.
Fill in: z-score of O=C1c2ccccc2[C@@]2(Cc3ccccc3N(CC(F)(F)F)C2=O)[C@H](c2ccc(CO)cc2)N1Cc1ccccc1C(F)(F)F is ___ -0.136

---

# assayMethodText: NIH:OVCAR-3 ovarian cancer cell cytotoxicity, dose response, PAX8 inhibitor project, plate reader, dry powder samples (AID 743044)
# conditionDescription: NIH:OVCAR-3 ovarian cancer cell viability; at 35 µM, stronger effect = lower value unless noted
Potency and affinity values are given separately. Records with an inconclusive call do not appear. Activity calls are given as the source filed them. How the calls were made is not given here.
recordedEndpoint: max activity

> print(dat)
                                        mol     recordedresult
1  C[C@@H]1CN([C@@H](C)CO)C(=O)c2cc(NC(=O)NC3CCCCC3)ccc2O[C@@H](C)CCCCO[C@H]1CN(C)Cc1ccc(C(F)(F)F)cc1  -25.9% (inactive)
2  C[C@@H]1CCCCO[C@H](CN(C)Cc2ccc(C(F)(F)F)cc2)[C@@H](C)CN([C@@H](C)CO)C(=O)c2cc(NS(=O)(=O)c3ccccc3)ccc2O1  -9.99% (inactive)

Fill in: max activity of COc1ccccc1S(=O)(=O)N(C)C[C@@H]1Oc2cc(C#CCC3CCCC3)ccc2S(=O)(=O)N([C@@H](C)CO)C[C@@H]1C is ___ -15.5% (inactive)

---

# Test system: XIP peptide (Xip251-270)
# assayMethodText: small-molecule binders of XIP peptide, primary screen, biochemical, small-molecule microarray, fluorescence 635/667 nm, 0.5 µg/mL protein (AID 1183)
# conditionDescription: small-molecule microarray binding, fluorescence 635 nm; higher = more signal
Please provide measured composite z-score for the entries that follow.
Answers are plain numbers.

Here is how some compounds turned out for composite z-score.
> print(dat)
                                   compound   recordedendpoint  recordedresult
1  CCN(CC)c1ccc(N2CC=CC34O[C@@H]5C=CCOC(=O)[C@@H]5[C@H]3C(=O)N(C(CO)C(C)C)[C@@H]4C2=O)cc1 (stereo not given in full)  composite z-score           -0.51
2  CC(CO)N1C(=O)[C@@H]2C3C(=O)OCCC/C=C\[C@H]3OC23C=CCN(Cc2ccccc2)C(=O)[C@@H]13 (stereo not given in full)  composite z-score          -0.736
3  O=C(NO)[C@]1(Cc2ccccc2)N=C(c2ccc(OCCCO)cc2)O[C@@H]1c1ccccc1  composite z-score           -1.32

Provide composite z-score for all items below, preserving their order.
1. COC(=O)C1=CC(c2ccc(CO)cc2)=CC(C2CC2)N(C)C=C1C(=O)OC (stereo not given)
2. CCOC(=O)C[C@H]1[C@H](OC(=O)c2ccc(-c3ccccc3)cc2)[C@@H](NC(=O)c2ccccc2)c2cc(OCCCO)ccc2N1C(=O)c1ccccc1

-0.407
-0.206

Where these numbers come from: PubChem BioAssay
